Tested on: Jurkat cells
Measurement Description: Sirolimus (rapamycin) dose response of FKBP13 constructs stably transduced into Jurkat cells, flow cytometry
Format: cell-based
Test Conditions: rapamycin; Table 14; read-out: Rapamycin EC90
Property: EC90 (nM)
Provide only the numeric value, understood in nM.

Consider the following illustrative entries.
Would you mind telling me what EC90 value was observed for FKBP-187 (protein, Description of sequence: Construct Name: FKBP-187; Mutation(s): Q72R Q84E A117W V85R DRD M54A L80G) HCPIKSRKGDVLHAHYTGKLEDGTEFDSSLPRNQPFVFSGGTGERIKGWDQGLLGMCEGEKRKLVIPSELGYGERGWPPKIPGGATLVFEVELLKIER ?
5310

Would you mind telling me what EC90 value was observed for FKBP-153: FKBP13 DRD Q72R, S79W, Q84E, A117W, M54A; SEQ ID NO: 103 (protein, Description of sequence: FKBP13-AcGFP-mCherry Fusion; Construct Name: FKBP-153; FKBP13 DRD in Construct : FKBP13 (mutated to match FKBP12 active site Q72RS79W Q84E A117W) (DRD M54A)) HCPIKSRKGDVLHAHYTGKLEDGTEFDSSLPRNQPFVFWLGTGEVIKGWDQGLLGMCEGEKRKLVIPSELGYGERGWPPKIPGGATLVFEVELLKIER ?
1520

Could you now look at the following molecule, please?
Would you mind telling me what EC90 value was observed for FKBP-117: FKBP13 DRD Q72R, Q84E, A117W, V85R; SEQ ID NO: 67 (protein, Description of sequence: FKBP13-AcGFP-mCherry Fusion; Construct Name: FKBP-117; FKBP13 DRD in Construct : FKBP13 (mutated to match FKBP12 active site Q72R Q84E A117W) (DRD V85R)) HCPIKSRKGDVLHMHYTGKLEDGTEFDSSLPRNQPFVFSLGTGERIKGWDQGLLGMCEGEKRKLVIPSELGYGERGWPPKIPGGATLVFEVELLKIER ?
170
